test system: ASFV; test: microbe, parasite or virus in culture; assay type: cell-based; conditions: African swine fever virus, MA104, read-out: IC50 against ASFV
pIC50: −log10 of the molar value.
experimental.readout: pIC50

>>> recorded_result("COc1ccc2cc1Oc1ccc(cc1)C[C@H]1c3cc(c(OC)cc3CCN1C)Oc1c(OC)c(OC)cc3c1[C@H](C2)N(C)CC3")
6.06
